Each entry below carries its reported pEC50.
- target.system: Arabidopsis thaliana SHMT
- test.summary: SHMT activity assay (ED50 SHMT), coupled with N5,N10-CH2-THF dehydrogenase, NADH at 340 nm
- Assay type: biochemical
- run.conditions: Table 2, Arabidopsis thaliana SHMT enzyme assay; values given as upper bounds
pEC50: −log10 of the molar value.
quantity: pEC50

{"compound": "CC(C)C1(c2cc(C#N)cc(C#N)c2)C(C#N)=C(N)Oc2[nH]ncc21 (stereo not shown)", "result": "> 8.00"}
{"compound": "Cc1n[nH]c2c1C(c1cc(Cl)cc(-c3ccc(Cl)cc3)c1)(C1CCC1)C(C#N)=C(N)O2 (stereo not shown)", "result": "> 8.00"}
{"compound": "Cc1n[nH]c2c1C(c1cc(C#N)cc(-c3ccsc3)c1)(C1CCC1)C(C#N)=C(N)O2 (stereo not shown)", "result": "> 8.00"}
{"compound": "Cc1n[nH]c2c1C(c1cc(C(F)(F)F)cc(C(F)(F)F)c1)(C1(F)CC1)C(C#N)=C(N)O2 (stereo not shown)", "result": "> 8.00"}
{"compound": "CCOc1n[nH]c2c1C(c1cc(C#N)cc(C#N)c1)(C1CCC1)C(C#N)=C(N)O2 (stereo not shown)", "result": "> 7.00"}
{"compound": "Cc1n[nH]c2c1C(c1cc(Cl)cc(-c3cccs3)c1)(C1CCC1)C(C#N)=C(N)O2 (stereo not shown)", "result": "> 8.00"}
{"compound": "Cc1n[nH]c2c1C(c1cc(Cl)cc(-c3cccc(C(F)(F)F)c3)c1)(C1CCC1)C(C#N)=C(N)O2 (stereo not shown)", "result": "> 8.00"}
{"compound": "Cc1n[nH]c2c1C(c1cc(Cl)cc(C(=O)OCc3ccccc3)c1)(C1CCC1)C(C#N)=C(N)O2 (stereo not shown)", "result": "> 8.00"}
{"compound": "N#CC1=C(N)Oc2[nH]ncc2C1(c1cc(Br)cc(Br)c1)C1CC=CC1 (stereo not shown)", "result": "> 7.00"}
{"compound": "Cc1n[nH]c2c1C(c1cc(Cl)cc(Oc3ccccc3Cl)c1)(C1CCC1)C(C#N)=C(N)O2 (stereo not shown)", "result": "> 8.00"}
{"compound": "COc1cccc(Oc2cc(Cl)cc(C3(C4CCC4)C(C#N)=C(N)Oc4[nH]nc(C)c43)c2)c1 (stereo not shown)", "result": "> 8.00"}
{"compound": "COc1n[nH]c2c1C(c1cc(Cl)cc(Cl)c1)(C1CCC1)C(C#N)=C(N)O2 (stereo not shown)", "result": "> 8.00"}
{"compound": "Cc1n[nH]c2c1C(c1cc(Cl)cc(-c3cccnc3)c1)(C1CCC1)C(C#N)=C(N)O2 (stereo not shown)", "result": "> 8.00"}
{"compound": "CC(C)C1(c2cc(C#N)cc(C(F)(F)F)c2)C(C#N)=C(N)Oc2[nH]ncc21 (stereo not shown)", "result": "> 8.00"}
{"compound": "N#CC1=C(N)Oc2[nH]ncc2C1(c1cc(I)cc(I)c1)C1CCC1 (stereo not shown)", "result": "> 8.00"}
{"compound": "Cc1n[nH]c2c1C(c1cc(Br)cc(C(F)(F)F)c1)(C1CCC1)C(C#N)=C(N)O2 (stereo not shown)", "result": "> 8.00"}

====

- target.system: Arabidopsis thaliana SHMT
- test.summary: SHMT activity assay (ED50 SHMT), coupled with N5,N10-CH2-THF dehydrogenase, NADH at 340 nm
- Type: biochemical
- run.conditions: Table 2; values given as upper bounds
pEC50: −log10 of the molar value.

{"molecule": "Cc1n[nH]c2c1C(c1cc(C#N)cc(N(C)C(=O)CC#N)c1)(C1CCC1)C(C#N)=C(N)O2 (stereo not shown)", "target.system": "Arabidopsis thaliana SHMT", "pEC50": "> 8.00"}
{"molecule": "COC(=O)c1cc(F)cc(-c2cc(C#N)cc(C3(C4CCC4)C(C#N)=C(N)Oc4[nH]nc(C)c43)c2)c1 (stereo not shown)", "target.system": "Arabidopsis thaliana SHMT", "pEC50": "> 8.00"}
{"molecule": "CCC1(c2cc(Cl)cc(C#N)c2)C(C#N)=C(N)Oc2[nH]nc(C(C)C)c21 (stereo not shown)", "target.system": "Arabidopsis thaliana SHMT", "pEC50": "> 7.00"}
{"molecule": "CCC1(c2cc(Cl)cc(Cl)c2)C(C#N)=C(N)Oc2[nH]nc(C)c21 (stereo not shown)", "target.system": "Arabidopsis thaliana SHMT", "pEC50": "> 7.00"}
